Data provenance is the nanobody polyreactivity screen of Harvey et al. (2022).

assay: yeast display, Sf9 membrane polyspecificity reagent, FACS + sequencing; frameworks hold sequencing errors
MEASUREMENT KIND: polyreactivity (PSR sort gate)

QVQLVESGGGLVQAGGSLRLSCAASGSIFDDYAMGWYRQAPGKERELVAAITTGGGRTYYADSVKGRFTISRDNAKNTVYLQMNSLKPEDTAVYYCNAKAVRGYGTWRDGSISYGMDYWGQGTQVTVSS ... high polyreactivity
QVQLVESGGGLVQAGGSLRLSCAASGSIFTYNAMGWYRPAPGKERELVAAINTSGSTNYADSVKGRFTISRDNAKNTVYLQMNSLKPEVTAVFYCAAGIVVTGYYYWGQGTQVTVSS ... low polyreactivity
QVHLVESGGGLVQAGGSLRLSFAADGSSFVRYAMGWYRQAPGKEREFVAAISRTGGSTYYADSVKGRFTLSRDNAKNTVYLQMNSLKQEVTAVFYCDARYIRGYDYWGQGTKVTVSS ... high polyreactivity
QVQLVESGGGLVQAGGSLRLSCAASGITSFFYDMGWYRQAPGKERELVAGISSGGSTNYADSVKGRFTISRDNAKNTVYLQMNSLKPEDTAVSYCAKDYPHTVSLGEYDYWGQGTQVTVSS ... high polyreactivity
QVQLVESGGGLVQAGGSLRLCCAASGFTFSWYAMGWYRQAPGKERELVAAISSSGGSTYYADSVKGRFTISRDNAKNTVYLQMYSLKPEDTAVYYCNAYRSASVVVGYDYWGQGTQVTVSS ... high polyreactivity

Form field: reported polyreactivity (PSR sort gate) of "QVQLVESGGGLVQAGGSLSLSCAASGFTFYYYAMGLYRQAPGKERELVAAISWSGGSTYYADSVKGRFTISRDIAKNSVYLQMNCLKPEYTAVYYCNAVGYTAYDYWGQGTQVTVSS"
high polyreactivity

Follow-up item: "QVQLQESGGGLVQAGGSLRLSCAASGYISLAQTIGWFRQAPGKEREFVASIALGSSTYYTDSVKGSFTISRDNAKTTVYLQMNSLKPDDTAVYYCAARVGASYAHDYWGQGTQVTVSS"
low polyreactivity

Follow-up item: "QVQLVESGGGLVQAGCSLRLSCSASGLTFYANAMGWYRQAPGKERELVAAISKSGGNTYYAYSVKGRFTISRDNAKNTVYLQMNSLKPEDTAVYYCAVGYPRGYVDVDSWGQGTQVTVSS"
high polyreactivity

Follow-up item: "QVQLVESGGGLVQAGGSLRLSYAASGSIFGRYVMGWYRQAPGKERELVAAIKRSGGRTYYADSVKGRFTISRDNAKNTVYLQMNSLKPEDTAVYYCATYTGYSASKEVPYDYWGQGTQVTVSS"
high polyreactivity

Follow-up item: "QVQLVESGGGLVQAGGSLRLSCAASGIISAHYAMGWYRQAPGKERELVAAISSSGGSTYYADSVKGRFTISRDNAKNTVYLQMNSLKPEDTAVYYCNAEFYWGYDYWGQGTQVTVSS"
low polyreactivity

Follow-up item: "QVQLVESGGGLVQAGGSLRLSCAASGRTFNIYAMGWYRQAPGKERELVAAITWRSGSTYYADSVKGRFTISRDNAKNTVYLQMNSLKPEDTAVYYCAAEQWSSVPEFDYWGQGSQVTVSS"
high polyreactivity

---

test: yeast display, Sf9 membrane polyspecificity reagent, FACS + sequencing; frameworks hold sequencing errors
MEASUREMENT KIND: polyreactivity (PSR sort gate)

See these solved cases before continuing.
QVQLVESGGGLVQAGGSLRLSCAASGFIFRNYAMGWYRQAPGKERELVAAITGRGTYTYYADSVKGRFTISRDNAKNTVYLQMNSLKPEDTAVYYCAARSLALVYRKYDYWGQGTQVTVSS ... high polyreactivity
QVQLVESGGGLVQAGCSLRLICAASGFIFRTYAMGWYRQAPGKESELVAAISRGGVRTYYADSVKGRFTISRDNAKNTVYLQMNSLKPEDTAVYYCAADDVHGIYDYWGQGTQVTVSS ... high polyreactivity
QVQLVESGGGLVQAGGSLRLSCAASGSIFVINAMGWYRQAPGKERELVAAISYSGTGTYYADSVKGRFTISRDNAKNTVYLQMNSLKPEDTAVYYCAADYYYRYRIYDYWGQGTQVTVSS ... low polyreactivity
QVQLVESGGGLVQAGGSLRLSCAASGSTFVPNTMGWYRQAPGKERELVADITYSGGSTYYADSVKGRFTISRDNAKNTVYLQMNSLKPEDTAVYYCAAEGTTWYYDMDYWGQGTQVTVSS ... low polyreactivity
QVQLVESGGGLVQAGGSLRLSCAASGRIFKWYAMGWYRQAPGKERELVAAISRSGGTTYYADSVKGRFTISRDNAKNTVYLQMNSLKPEDTAVYYCATRNIYFSSVDYWGQGTQVTVSS ... high polyreactivity
QVQLVESGGGLVQAGGSLRLICAASGFIFITNAMGWSRQAPGKERELVAAITSSDGNTYYADSVKGRFTISRDNAKNTVYLQMNSLKPEDTAVYYCADDARTKSYVRLYDYWGQGTQVTVSS ... low polyreactivity
QVQLVESGGGLVQAGGSLRLSCAASGSTLVTNAMGWYRQAPGKERELVAAITFSGGTTYYADSVKGRFTISRDNAKNTFYLQMNSLKPEDTAVYYCAAEIWLEYVGYDYWGQGTQVTVSS ... high polyreactivity
QVQLVESGGGLVQAGGSLRLSCAASGSIFPQYAMGWYRQAPGKERELVAAITWSGSRTRYADSVKGRFTISRDNAKNTVYLQMNSLKPEDTAVYYCNAVNYRSSRDSGYWGQGTQVTVSS ... high polyreactivity

Now look at this one.
Form field: reported polyreactivity (PSR sort gate) of "QVQLVDSGGGLVQAGGSLRLSCAASGSISYYNAMGWYRQAPGKERELVATITDSGGSTYYADSVKGRFTISRDNAKNTVYLQMNSLKPEDTAVYYCAVDYSEWYSIYDYWGQGTQVTVSS"
low polyreactivity
